Target chain: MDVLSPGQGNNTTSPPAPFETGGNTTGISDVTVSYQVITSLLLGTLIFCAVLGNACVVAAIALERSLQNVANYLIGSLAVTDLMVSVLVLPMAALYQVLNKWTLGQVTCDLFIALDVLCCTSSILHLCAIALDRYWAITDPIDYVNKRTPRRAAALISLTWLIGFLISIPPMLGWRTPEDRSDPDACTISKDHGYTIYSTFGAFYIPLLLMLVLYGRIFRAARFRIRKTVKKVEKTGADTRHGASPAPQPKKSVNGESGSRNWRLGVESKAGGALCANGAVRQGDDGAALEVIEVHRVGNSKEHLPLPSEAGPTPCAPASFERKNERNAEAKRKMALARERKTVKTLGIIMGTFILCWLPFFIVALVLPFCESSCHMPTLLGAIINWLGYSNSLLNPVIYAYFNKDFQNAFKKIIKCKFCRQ

{"input.smiles": "c1ccc(CCC2=NCCN2)cc1", "Ki": "> 10 µM"}

----------
Target protein (sequence): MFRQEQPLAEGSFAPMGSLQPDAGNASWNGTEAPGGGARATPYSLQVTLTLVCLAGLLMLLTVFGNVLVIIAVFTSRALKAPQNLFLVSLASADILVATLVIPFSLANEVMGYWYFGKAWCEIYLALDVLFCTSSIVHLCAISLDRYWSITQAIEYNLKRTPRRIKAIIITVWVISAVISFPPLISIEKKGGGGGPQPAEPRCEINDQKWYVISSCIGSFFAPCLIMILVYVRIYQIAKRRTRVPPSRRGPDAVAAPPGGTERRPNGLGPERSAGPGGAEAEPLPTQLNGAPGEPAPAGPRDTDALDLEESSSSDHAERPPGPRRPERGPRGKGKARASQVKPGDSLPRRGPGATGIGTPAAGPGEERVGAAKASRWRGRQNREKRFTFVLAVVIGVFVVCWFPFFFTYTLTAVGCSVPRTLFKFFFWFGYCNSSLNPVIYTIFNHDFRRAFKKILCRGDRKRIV

{"input.smiles": "c1ccc(CCC2=NCCN2)cc1", "Ki": "851 nM"}
